# System: bacterial tyrosinase enzyme
# test_description: in vitro bacterial tyrosinase inhibition assay
# Assay type: biochemical
# settings: L-tyrosine substrate, 37 °C, absorbance 475 nm
outcome_measure: Percentage inhibition

# count of solved cases: 2
1) COc1ccc(OC)c(NC(=O)CSc2nnc(-c3cc4c(ccc5ccccc54)o3)n2-c2ccccc2)c1 [20d]    22.77 ± 0.17
2) CCN(CC)C(=O)CSc1nnc(-c2cc3c(ccc4ccccc43)o2)n1-c1ccccc1 [20j]    2.61 ± 0.50

Please find the next compound below.
Query string: // query Percentage inhibition value for entry O=c1cc(CO)occ1O [Kojic acid, reference compound]
Result string: 6.80 ± 0.58
